method.notes: In vitro cytotoxicity, NIH 3T3 (neutral red) and LD50
Type: cell-based
experimental.conditions: 50% cell killing, neutral red coloration, normal mouse fibroblasts; read-out: LC50 NIH 3T3 NR
# Lookup of reported CC50 at 72 h keyed by entry

smiles.code	unit.text	comparative.sign	CC50 at 72 h
C[Si](C)(C)OC1CCN(CC(=O)Nc2nccs2)CC1	µg/mL	>	100
COc1ccc(-c2csc(NC(=O)CN3CCC(O[Si](C)(C)C)CC3)n2)cc1	µg/mL	=	72

---

method.notes: In vitro cytotoxicity, NIH 3T3 (neutral red) and LD50
Type: cell-based
experimental.conditions: mouse; NIH 3T3; method not described
Procedure: The control cells and cells with tested compounds in the range of 2–5* 10^4 cell mL^−1 concentration (depending on line nature) were placed on separate 96 wells plates. […] The number of survived cells was determined using crystal violet (CV), 3-(4,5-dimethylthiazol-2-yl)-2,5-diphenyltetrazolinium bromide (MTT), or neutral red (NR) coloration which was assayed by multiscan spectrophotometer. The quantity of alive cells on control plate was taken in calculations for 100% [22, 23]. […]
# Lookup of reported LD50 keyed by entry

smiles.code	comparative.sign	LD50 (mg/kg)
COc1ccc(-c2csc(NC(=O)CN3CCC(O)CC3)n2)cc1	=	1110
C[Si](C)(C)OC1CCN(CC(=O)Nc2nccs2)CC1	=	2130
O=C(CN1CCC(O)CC1)Nc1nccs1	>	2000
COc1ccc(-c2csc(NC(=O)CN3CCC(O[Si](C)(C)C)CC3)n2)cc1	=	839
